Below is a list of entries, each paired with its recorded GI50 value.
System: SNB-78
assay.procedure: NCI tumour cell line growth inhibition, 48 h
Active and inactive are the calls of the source. No stated cut-off is given here; in the data, active = GI50 up to about 1.1 µM and inactive = higher.

{"compound": "COc1cc(/C=C\\c2ccc(OC(C)=O)cc2)cc(OC)c1OC", "GI50": "5.62 µM (inactive)"}
{"compound": "COc1ccccc1C(N)c1ccccc1 (stereo not drawn)", "GI50": "> 100 µM (inactive)"}
{"compound": "COc1ccc(C2N(NC(=O)c3ccncc3)C(=O)CS2(=O)=O)cc1F (stereo not drawn)", "GI50": "> 100 µM (inactive)"}

----------
Below is a list of entries, each paired with its recorded GI50 value.
System: NCI-H522
assay.procedure: NCI tumour cell line growth inhibition, 48 h
Active and inactive are the calls of the source. No stated cut-off is given here; in the data, active = GI50 up to about 1.1 µM and inactive = higher.
endpoint.name: GI50

{"compound": "Cc1ccc(NC(=S)NNC(=O)c2cc(-c3ccccc3)nc3ccccc23)cc1C", "meas.value": "22.5 µM (inactive)"}
{"compound": "COC(=O)c1c(C)[nH]c2c1C(=O)C(=O)c1nc(C)c(C)nc1-2", "meas.value": "3.48 µM (inactive)"}
{"compound": "O=C1CC(=O)NC(NN2C(=O)CSC2C(=O)c2ccco2)=N1 (stereo unspecified)", "meas.value": "> 100 µM (inactive)"}
{"compound": "CCCS(=O)(=O)O", "meas.value": "> 100 µM (inactive)"}
{"compound": "CC(C)(C)C(=O)OCC1C(=O)OCC1C(=O)N1Cc2cc3ccccc3nc2C1 (stereo unspecified)", "meas.value": "0.569 µM (active)"}
{"compound": "CCC1(OC(=O)CN)C(=O)OCc2c1cc1n(c2=O)Cc2cc3ccccc3nc2-1 (stereo unspecified)", "meas.value": "0.0188 µM (active)"}
{"compound": "O=C(O)c1ccc(NS(=O)(=O)Cc2ccccc2)cc1", "meas.value": "> 100 µM (inactive)"}
{"compound": "CCCCN(CCCC)CC(C(=O)Nc1ccccc1)/C(C)=N\\NC(=O)c1ccncc1 (stereo unspecified)", "meas.value": "> 100 µM (inactive)"}
{"compound": "COc1ccc(C2S/C(=C\\c3cc(OC)c(OC)c(OC)c3)C(=O)N2NC(=O)Cc2ccccc2)cc1 (stereo unspecified)", "meas.value": "> 100 µM (inactive)"}
{"compound": "CS/C(=N\\C(=S)Nc1ccccc1)Nc1ccccc1", "meas.value": "14.6 µM (inactive)"}
{"compound": "CCCCC1(N=[N+]=[N-])C(=O)c2cccc3c2N(CCC3)C1=O (stereo unspecified)", "meas.value": "> 100 µM (inactive)"}
